# test: Intrinsic clearance in human liver microsomes
# Type: ADME, Microsome
# details: read-out: CLH
What microsomal CLint was measured for each of the following?

Look up microsomal CLint for this molecule: `CCOC(=O)Nc1cccc([C@@H](c2ccc(C(=O)N(C)CC)cc2)N2CCN(Cc3nc[nH]c3C)CC2)c1`
17 µL/min/mg

`CCN(CC)C(=O)c1ccc([C@H](c2cccc(NC(=O)C3CC3)c2)N2CCN(Cc3ccc(F)cc3)CC2)cc1` ?
150 µL/min/mg

`CCOC(=O)Nc1cccc([C@@H](c2ccc(C(=O)N3CCC3)cc2)N2CCN(Cc3cccnc3)CC2)c1` ?
53 µL/min/mg

`CCN(CC)C(=O)c1ccc([C@H](c2cccc(NC(=O)C3CC3)c2)N2CCN(CCOC)CC2)cc1` ?
26 µL/min/mg

`CCN(C)C(=O)c1ccc([C@H](c2ccccn2)N2CCN(Cc3ccccn3)CC2)cc1` ?
20 µL/min/mg

`CCOC(=O)Nc1cccc([C@@H](c2ccc(C(=O)N(CC)CC)cc2)N2CCN(Cc3cscn3)CC2)c1` ?
210 µL/min/mg

`CCOC(=O)Nc1cccc([C@@H](c2ccc(C(=O)N(C)CC)cc2)N2CCN(Cc3c[nH]c(C)n3)CC2)c1` ?
< 4 µL/min/mg

`CCOC(=O)Nc1ccccc1[C@@H](c1ccc(C(=O)N(CC)CC)cc1)N1CCN(Cc2cscn2)CC1` ?
430 µL/min/mg

`CCN(C)C(=O)c1ccc([C@H](c2cccc(NC(=O)C3CC3)c2)N2CCN(Cc3nc(C)cs3)CC2)cc1` ?
160 µL/min/mg

`O=C(Nc1cccc([C@@H](c2ccc(C(=O)N3CCC3)cc2)N2CCN(Cc3ccc(F)cc3)CC2)c1)C1CC1` ?
49 µL/min/mg

`CCN(CC)C(=O)c1ccc([C@H](c2cccc(NC(=O)OC)c2)N2CCN(Cc3cccnc3)CC2)cc1` ?
110 µL/min/mg

`CCN(CC)C(=O)c1ccc([C@H](c2cccc(NC(=O)C3CC3)c2)N2CCN(Cc3ccccn3)CC2)cc1` ?
260 µL/min/mg

`CN(CCO)C(=O)c1ccc([C@H](c2cccc(NC(=O)C3CC3)c2)N2CCN(Cc3ccc(F)cc3)CC2)cc1` ?
36 µL/min/mg

`CCOC(=O)Nc1ccc([C@@H](c2ccc(C(=O)N(CC)CC)cc2)N2CCN(Cc3cscn3)CC2)cc1` ?
21 µL/min/mg

`CCN(C)C(=O)c1ccc([C@H](c2cccc(NC(=O)C3CC3)c2)N2CCN(CCCOC)CC2)cc1` ?
< 4 µL/min/mg

`CCN(C)C(=O)c1ccc([C@H](c2cccc(NC(=O)C3CCC3)c2)N2CCN(Cc3cccnc3)CC2)cc1` ?
85 µL/min/mg

`CCN(C)C(=O)c1ccc([C@H](c2cccnc2)N2CCN(Cc3cscn3)CC2)cc1` ?
40 µL/min/mg

* * *

What microsomal CLint was measured for each of the following?
# test: Intrinsic clearance in human liver microsomes
# Assay type: ADME, Microsome
# details: read-out: CLH
Quick reminder: number only, in µL/min/mg, skip the unit.

Look up microsomal CLint for this compound: `CCN(C)C(=O)c1ccc([C@H](c2cccc(NC(=O)OC)c2)N2CCN(Cc3cscn3)CC2)cc1`
38

`CCOC(=O)Nc1ccccc1[C@@H](c1ccc(C(=O)N(CC)CC)cc1)N1CCN(Cc2ccccn2)CC1` ?
650

`CCN(C)C(=O)c1ccc([C@H](c2cccnc2)N2CCN(Cc3ccccn3)CC2)cc1` ?
33

`CCN(CC)C(=O)c1ccc([C@H](c2cccc(NC(=O)OC)c2)N2CCN(Cc3cncs3)CC2)cc1` ?
100
